biological target: mGluR2 receptor (metabotropic glutamate receptor 2) (Homo sapiens); assay: mGluR2 potentiator screen (FLIPR, EC10-EC20 glutamate challenge); conditions: geometric mean; read-out: mGluR 2 EC50 (geometric mean);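 also: HEK cells stably expressing human mGluR2 with GL15 G protein, Fluo-4 calcium fluorescence read on FLIPR, compounds added before an EC10-EC20 glutamate challenge to detect potentiation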
Sequence (Q14416 19-872, species assumed): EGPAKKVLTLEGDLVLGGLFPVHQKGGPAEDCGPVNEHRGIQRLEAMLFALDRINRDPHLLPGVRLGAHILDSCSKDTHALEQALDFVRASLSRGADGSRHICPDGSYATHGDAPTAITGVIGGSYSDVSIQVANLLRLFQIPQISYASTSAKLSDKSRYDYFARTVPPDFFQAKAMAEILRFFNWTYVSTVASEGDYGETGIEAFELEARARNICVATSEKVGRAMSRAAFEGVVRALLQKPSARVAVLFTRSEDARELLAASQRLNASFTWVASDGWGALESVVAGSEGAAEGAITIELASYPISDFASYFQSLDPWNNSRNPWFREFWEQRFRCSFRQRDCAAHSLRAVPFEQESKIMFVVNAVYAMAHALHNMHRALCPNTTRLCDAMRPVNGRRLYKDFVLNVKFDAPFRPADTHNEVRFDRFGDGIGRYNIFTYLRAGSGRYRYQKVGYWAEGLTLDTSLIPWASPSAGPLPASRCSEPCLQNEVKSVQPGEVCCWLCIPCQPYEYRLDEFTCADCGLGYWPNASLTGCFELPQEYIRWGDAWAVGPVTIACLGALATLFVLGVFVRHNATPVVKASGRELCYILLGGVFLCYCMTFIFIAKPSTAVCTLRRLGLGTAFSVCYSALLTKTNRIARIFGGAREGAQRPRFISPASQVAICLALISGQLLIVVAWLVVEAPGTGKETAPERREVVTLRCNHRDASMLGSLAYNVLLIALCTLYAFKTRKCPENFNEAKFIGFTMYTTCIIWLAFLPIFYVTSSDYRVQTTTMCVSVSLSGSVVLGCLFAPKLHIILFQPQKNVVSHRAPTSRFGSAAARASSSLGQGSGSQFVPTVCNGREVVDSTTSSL
Measured EC50, listed per entry.

# compound, units.label, EC50
rows = [
    ("C[C@@H]1CN(Cc2ccc(O[C@@H](C)c3ccccc3)cc2)C(=O)O1", "nM", 173),
    ("C[C@@H]1CN(Cc2ccc(-c3ccc(C#N)cc3)cc2)C(=O)O1", "nM", 166),
    ("C[C@H]1[C@@H](c2ccccc2)OC(=O)N1Cc1ccc(OCC2CCC2)cc1", "nM", 660),
    ("CC1CCCC1N1CCN(Cc2ccc(OC(C)C3CCCCC3)cc2)C(=O)C1 (stereo not drawn)", "nM", 638),
    ("O=C1OCCN1Cc1ccc(OCCC2CCCCC2)cc1", "nM", 699),
    ("C[C@@H]1CN(Cc2ccc(-c3ccc(C(F)(F)F)cc3)cc2)C(=O)O1", "nM", 61),
    ("C[C@H]1[C@@H](c2ccccc2)OC(=O)N1Cc1ccc(OCc2ccccn2)cc1", "nM", 1760),
    ("COc1ccc(F)c(F)c1-c1ccc(CN2C[C@@H](C)OC2=O)cn1", "nM", 1370),
    ("C[C@@H]1CN(Cc2ccc(-c3ccc4c(c3)OCCO4)cc2)C(=O)O1", "nM", 42.2),
]
